Data origin, for the record: paper PMC11149885

- system: VEGFR2 (Homo sapiens, UniProt P35968)
- Construct: purchased Millipore Corporation (Dundee, Scotland) or Reaction Biology Corporation (contract assay)
- Sequence (P35968 20-1356): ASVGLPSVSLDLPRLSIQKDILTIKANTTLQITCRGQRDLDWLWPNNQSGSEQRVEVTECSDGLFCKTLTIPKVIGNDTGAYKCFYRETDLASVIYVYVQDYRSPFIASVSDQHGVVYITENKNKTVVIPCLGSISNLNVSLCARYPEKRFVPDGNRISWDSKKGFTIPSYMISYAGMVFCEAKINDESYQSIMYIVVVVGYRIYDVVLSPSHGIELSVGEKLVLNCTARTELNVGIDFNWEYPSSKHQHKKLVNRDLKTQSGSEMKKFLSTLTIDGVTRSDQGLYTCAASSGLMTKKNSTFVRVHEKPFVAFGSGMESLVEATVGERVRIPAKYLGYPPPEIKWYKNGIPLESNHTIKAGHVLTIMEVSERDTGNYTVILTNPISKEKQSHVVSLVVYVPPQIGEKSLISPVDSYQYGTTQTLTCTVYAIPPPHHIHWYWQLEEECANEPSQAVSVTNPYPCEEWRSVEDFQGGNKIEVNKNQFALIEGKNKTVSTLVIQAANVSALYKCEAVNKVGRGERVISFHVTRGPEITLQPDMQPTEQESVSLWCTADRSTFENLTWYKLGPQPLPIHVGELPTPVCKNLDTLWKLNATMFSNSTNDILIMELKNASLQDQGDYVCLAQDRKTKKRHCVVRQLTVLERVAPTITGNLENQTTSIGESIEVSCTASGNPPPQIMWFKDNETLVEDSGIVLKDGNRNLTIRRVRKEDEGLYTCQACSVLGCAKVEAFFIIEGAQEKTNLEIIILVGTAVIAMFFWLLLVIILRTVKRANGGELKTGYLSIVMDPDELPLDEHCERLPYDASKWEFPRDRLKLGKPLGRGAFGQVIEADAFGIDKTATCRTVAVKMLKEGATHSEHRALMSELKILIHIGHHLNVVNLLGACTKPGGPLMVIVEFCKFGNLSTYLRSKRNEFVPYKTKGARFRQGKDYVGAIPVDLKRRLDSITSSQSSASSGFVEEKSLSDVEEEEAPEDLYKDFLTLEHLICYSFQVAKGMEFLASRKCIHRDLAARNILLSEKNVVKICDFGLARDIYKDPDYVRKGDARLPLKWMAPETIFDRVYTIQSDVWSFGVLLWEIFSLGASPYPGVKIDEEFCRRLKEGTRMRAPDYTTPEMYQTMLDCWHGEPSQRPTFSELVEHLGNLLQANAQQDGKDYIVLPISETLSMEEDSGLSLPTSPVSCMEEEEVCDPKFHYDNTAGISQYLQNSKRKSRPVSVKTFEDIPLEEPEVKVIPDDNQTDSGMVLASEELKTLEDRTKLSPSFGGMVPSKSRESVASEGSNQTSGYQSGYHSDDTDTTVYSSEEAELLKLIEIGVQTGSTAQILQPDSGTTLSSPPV
- method-description: Ten-dose IC50 measurement
- Format: biochemical
- measurement-context: Fig 3A inset, unit inferred; plot axes in (M); 10μM ATP; read-out: Compound IC50 data for VEGFR-2: IC50
readout-kind: IC50 (M)
Provide the reading as a plain figure in M.

Please supply the value of reported IC50 for the item Cc1[nH]c(/C=C2\C(=O)Nc3ccc(F)cc32)c(C)c1C(=O)N[C@H]1CCN(C(=O)N(C)C)C1 [Vorolanib] 7.61e-08

----------
- system: VEGFR2 (Homo sapiens, UniProt P35968)
- Construct: purchased Millipore Corporation (Dundee, Scotland) or Reaction Biology Corporation (contract assay)
- method-description: Previously reported IC50 (literature)
- Type: biochemical
- measurement-context: nM value converted, S2 Fig legend
readout-kind: IC50 (nM)
Provide the reading as a plain figure in nM.

Please supply the value of reported IC50 for the item Cc1[nH]c(/C=C2\C(=O)Nc3ccc(F)cc32)c(C)c1C(=O)N[C@H]1CCN(C(=O)N(C)C)C1 [Vorolanib] 52.3
